Kindly state Population Mitochondria Different-Phenotype (%) for each of the entries shown.
Tested on: Fibroblast
Experiment: Multiplex assay against human fibroblast
Format: toxicity, cell-based
Details: 12 h, 10 µM, compound concentration 10 uM, replicate 2
Just the number in %, nothing appended.

Request: Item under review: CN1C[C@H](C(=O)N[C@]2(C)O[C@@]3(O)[C@@H]4CCCN4C(=O)[C@H](Cc4ccccc4)N3C2=O)C[C@@H]2c3cccc4[nH]cc(c34)C[C@H]21.CS(=O)(=O)O [DIHYDROERGOTAMINE MESYLATE] . Reported Population Mitochondria Different-Phenotype (%)?
Result: 0

Request: Also need `CC(C)(O)C(=O)N1CCN(c2ccc(C(F)(F)F)c(C3=C(c4c[nH]c5ccccc45)C(=O)NC3=O)c2)CC1` , thanks.
Result: 10

Request: Also need Nc1nc(CC(=O)Nc2ccc(CCNC[C@H](O)c3ccccc3)cc2)cs1 [MIRABEGRON] , thanks.
Result: 3

Request: Also need O=C(NCCNCC(O)COc1ccc(O)cc1)N1CCOCC1.O=C(NCCNCC(O)COc1ccc(O)cc1)N1CCOCC1.O=C(O)/C=C/C(=O)O (configuration not stated) [XAMOTEROL FUMARATE] , thanks.
Result: 11

Request: Also need `COc1cc(OC2CCN(C(C)=O)CC2)ccc1C(=O)N1CCC(N2C(=O)OCc3ccccc32)CC1` , thanks.
Result: 10

Request: Also need `S=C(NCCCc1c[nH]cn1)NCCCN(Cc1ccc(Cl)c(Cl)c1)c1ccc(Br)cn1` , thanks.
Result: 10

Request: Also need CC(C)C[C@H](CO)Nc1nc(S[C@@H](C)c2ccccc2)nc2nc(N)sc12 [AZD-8797] , thanks.
Result: 27

###

Tested on: U2OS
Assay: Multiplex assay against U2OS
Type: toxicity, cell-based
Conditions: human, 12 h, 1 µM, compound concentration 1 uM, replicate 1
reported.metric: Population Fragmented Nuclei (%)
Just the number in %, nothing appended.

Request: Item under review: `CC(C)(O)C(=O)N1CCN(c2ccc(C(F)(F)F)c(C3=C(c4c[nH]c5ccccc45)C(=O)NC3=O)c2)CC1` . Reported Population Fragmented Nuclei (%)?
Result: 29

Request: Also need `O=C(Nc1cc(-c2ccccc2)nn1-c1ccccc1F)c1ccc([N+](=O)[O-])cc1` , thanks.
Result: 25

Request: Also need Cl.Cl.OCCOCCN1CCN(C(c2ccccc2)c2ccc(Cl)cc2)CC1 (stereo not given) [HYDROXYZINE HYDROCHLORIDE] , thanks.
Result: 29

Request: Also need CCC(=O)OCC(=O)[C@@]1(OC(=O)CC)[C@@H](C)C[C@H]2[C@@H]3CCC4=CC(=O)C=C[C@]4(C)[C@@]3(Cl)[C@@H](O)C[C@@]21C [BECLOMETHASONE DIPROPIONATE] , thanks.
Result: 23

Request: Also need `OCCCNc1cc(-c2ccnc(Nc3cccc(Cl)c3)n2)ccn1` , thanks.
Result: 38

###

Kindly state Population Mitochondria Different-Phenotype (%) for each of the entries shown.
Test system: U2OS
Assay: Multiplex assay against U2OS
Type: toxicity, cell-based
Conditions: human, 12 h, 10 µM, compound concentration 10 uM, replicate 1
Non-standard residues stand in square brackets, D forms with d. Residues, ends and D or L forms follow the SMILES beside them.
Just the number in %, nothing appended.

Request: Item under review: `COc1cc(C(=O)N2CC[C@@H](O)[C@@H](N)C2)cc2nc(-c3cc4ccccc4n3CC3CC3)n(C)c12.Cl` . Reported Population Mitochondria Different-Phenotype (%)?
Result: 88

Request: Also need `OCCCNc1cc(-c2ccnc(Nc3cccc(Cl)c3)n2)ccn1` , thanks.
Result: 36

Request: Also need `CC(C)(O)C(=O)N1CCN(c2ccc(C(F)(F)F)c(C3=C(c4c[nH]c5ccccc45)C(=O)NC3=O)c2)CC1` , thanks.
Result: 23

Request: Also need `CC(C)C[C@H](CO)Nc1nc(S[C@@H](C)c2ccccc2)nc2nc(N)sc12` , thanks.
Result: 12

Request: Also need O=C(O)CCC/C=C\CC1C(O)CC(O)C1/C=C/C(O)COc1cccc(Cl)c1 (stereo not drawn) , thanks.
Result: 1

Request: Also need `O=c1nc2[nH]c3ccccc3nc-2c(=O)[nH]1` , thanks.
Result: 0

Request: Also need `Cc1cc(O)c(-c2ccc([C@@H](C)CN(C)C)cc2)c2c1[nH]c(=O)c1sccc12` , thanks.
Result: 62

Request: Also need CN1C[C@H](C(=O)N[C@]2(C)O[C@@]3(O)[C@@H]4CCCN4C(=O)[C@H](Cc4ccccc4)N3C2=O)C[C@@H]2c3cccc4[nH]cc(c34)C[C@H]21.CS(=O)(=O)O [DIHYDROERGOTAMINE MESYLATE] , thanks.
Result: 1

Request: Also need `COc1ccc2c(c1OCc1ccccc1)C[C@@H](C(=O)O)N(C(=O)C(c1ccccc1)c1ccccc1)C2` , thanks.
Result: 1

Request: Also need `Nc1nc(CC(=O)Nc2ccc(CCNC[C@H](O)c3ccccc3)cc2)cs1` , thanks.
Result: 2

Request: Also need `Cn1cc(C(=O)OCC2CCN(CCNS(C)(=O)=O)CC2)c2ccccc21` , thanks.
Result: 5

Request: Also need `CN1CCN(c2ccc(Nc3c4ccccc4nc4ccccc34)cc2)CC1.Cl.Cl.O` , thanks.
Result: 95

Request: Also need `CCCCC[C@H](O)/C=C/[C@H]1[C@H](O)CC(=O)[C@@H]1CCCCCCC(=O)O` , thanks.
Result: 0

Request: Also need CC(C)C[C@@H]1NC(=O)[C@@H](C(C)C)NC(=O)[C@@H]2CCCN2C(=O)[C@@H](CC(=O)O)NC(=O)[C@@H](Cc2c[nH]c3ccccc23)NC1=O [BQ-123] (cyclo(L[dW][dD]P[dV])) , thanks.
Result: 1

Request: Also need `COc1cc(OC2CCN(C(C)=O)CC2)ccc1C(=O)N1CCC(N2C(=O)OCc3ccccc32)CC1` , thanks.
Result: 6

Request: Also need `COc1cc(Nc2ncc3c(n2)-c2ccc(Cl)cc2C(c2c(F)cccc2OC)=NC3)ccc1C(=O)O` , thanks.
Result: 5

Request: Also need `COc1ccc2[nH]c(I)c(CCNC(C)=O)c2c1` , thanks.
Result: 1

Request: Also need `S=C(NCCCc1c[nH]cn1)NCCCN(Cc1ccc(Cl)c(Cl)c1)c1ccc(Br)cn1` , thanks.
Result: 26

Request: Also need `COC(c1ccccc1)(c1ccccc1)[C@H](Oc1nc(C)cc(C)n1)C(=O)O` , thanks.
Result: 2

Request: Also need `COCCn1c(C)c(C)s/c1=N\C(=O)C1C(C)(C)C1(C)C` , thanks.
Result: 4

Request: Also need `C[C@H](NC(=O)CNC(=O)c1cccc(Cl)c1)c1ccccc1` , thanks.
Result: 3

Request: Also need `C=CCN1C[C@H](C(=O)N(CCCN(C)C)C(=O)NCC)C[C@@H]2c3cccc4[nH]cc(c34)C[C@H]21` , thanks.
Result: 9

Request: Also need CCC(=O)OCC(=O)[C@@]1(OC(=O)CC)[C@@H](C)C[C@H]2[C@@H]3CCC4=CC(=O)C=C[C@]4(C)[C@@]3(Cl)[C@@H](O)C[C@@]21C [BECLOMETHASONE DIPROPIONATE] , thanks.
Result: 73

Request: Also need `O=c1ccc2ccc(OCCCCN3CCN(c4cccc5sccc45)CC3)cc2[nH]1` , thanks.
Result: 82

Request: Also need COc1cc2nc(N3CCN(C(=O)c4ccco4)CC3)nc(N)c2cc1OC.Cl [PRAZOSIN HYDROCHLORIDE] , thanks.
Result: 2

Request: Also need `Nc1nc(-c2ccco2)c2cnn(Cc3ccccc3F)c2n1` , thanks.
Result: 4

Request: Also need `CSc1nc(NC2CCCC2)c([N+](=O)[O-])c(NC2CCCC2)n1` , thanks.
Result: 5

Request: Also need Cl.Cl.OCCOCCN1CCN(C(c2ccccc2)c2ccc(Cl)cc2)CC1 (stereo not drawn) [HYDROXYZINE HYDROCHLORIDE] , thanks.
Result: 10

Request: Also need `CN(C)C(=O)Cn1cc(-c2ccc(-c3nnc4ccccn34)cc2)cn1` , thanks.
Result: 1

Request: Also need Cc1ccc(OCC(O)C(C)NC(C)C)c2c1CCC2.Cl (stereo not drawn) , thanks.
Result: 17

Request: Also need CN(C)C/C=C/C(=O)Nc1ccc(C(=O)N2CCCC(Nc3ncc(Cl)c(-c4c[nH]c5ccccc45)n3)C2)cc1 (stereo not drawn) , thanks.
Result: 40

Request: Also need `Cc1cc(-c2ccc3c(c2)CC[C@H]3N2CC3(CCN(C(=O)Cc4cn5cc(C)sc5n4)CC3)C2)ncn1` , thanks.
Result: 5

Request: Also need CN1CCN2c3ccccc3Cc3ccccc3C2C1.Cl (stereo not drawn) [MIANSERIN HYDROCHLORIDE] , thanks.
Result: 3
